tested on: colorectal (HT29) cancer cell line; assay: Sulforhodamine B (SRB) cell viability assay, HT-29; assay type: cell-based; conditions: SRB, 72 h, mean ± SEM (n = 9); read-out: IC50 HT-29
Endpoint Name: IC50 (µM)
One number for each entry, in µM.

Query: Looking for the measured IC50 of N.N.[Cl][Pt][Cl] [Cisplatin, reference compound] , can you help?
Reply: 1.38

====

test system: cervical (HeLa) cancer cell line; test: Sulforhodamine B (SRB) cell viability assay, HeLa; type: cell-based; conditions: Homo sapiens, HeLa; SRB, 72 h, mean ± SEM (n = 9); read-out: IC50 HeLa
Endpoint Name: pIC50
Numbers only, as −log10 of the molar value.

Query: Recorded pIC50 for CN(Cc1cnc2nc(N)nc(N)c2n1)c1ccc(C(=O)N[C@@H](CCC(=O)O)C(=O)O)cc1 [Methotrexate, reference compound] , please?
Reply: 7.03

====

system: cardiomyocyte (H9C2) normal cell line; assay: Sulforhodamine B (SRB) cell viability assay, H9C2; format: cell-based; conditions: SRB, 72 h, normal cell line, mean ± SEM (n = 9); read-out: IC50 H9C2
Endpoint Name: IC50
Form field: result (number plus unit)

Query: May I ask what IC50 has been recorded for N.N.[Cl][Pt][Cl] [Cisplatin, reference compound] ?
Reply: 14.1 µM

====

system: liver (WRL-68) normal cell line; assay: Sulforhodamine B (SRB) cell viability assay, WRL-68; assay type: cell-based; conditions: SRB, 72 h, normal cell line, mean ± SEM (n = 9); read-out: IC50 WRL-68
Endpoint Name: IC50

Query: What measured IC50 goes with N.N.[Cl][Pt][Cl] [Cisplatin, reference compound] ?
Reply: 1130 nM
